- assay.target: Dihydrofolate reductase (Rattus norvegicus, UniProt Q920D2)
- Sequence (Q920D2 whole entry): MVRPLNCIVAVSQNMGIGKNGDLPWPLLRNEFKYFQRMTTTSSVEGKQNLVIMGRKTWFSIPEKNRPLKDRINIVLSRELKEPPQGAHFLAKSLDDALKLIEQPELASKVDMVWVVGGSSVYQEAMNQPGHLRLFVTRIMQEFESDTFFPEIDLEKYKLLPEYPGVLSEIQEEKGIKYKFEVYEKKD
- test.summary: Inhibition against dihydrofolate reductase enzyme of rat liver
- test.conditions: read-out: I50

compound.structure | IC50
COc1cc(Cc2c(N)nc(N)nc2OC)cc(OC)c1OC | > 100 µM
COc1cc(Cc2c(N)nc(N)nc2-c2ccccc2)cc(OC)c1O | > 45 µM
COc1cc(Cc2c(C)nc(N)nc2N)cc(OC)c1OC | > 400 µM
COc1cc(Cc2c(N)nc(N)nc2-c2ccccc2)cc(OC)c1OC | > 400 µM
COc1cc(Cc2c(N)nc(N)nc2N)cc(OC)c1OC | > 900 µM
